# tested target: human purified αVβ5 (Homo sapiens, UniProt P06756+P18084)
# Sequence (P06756 31-889 limits assumed): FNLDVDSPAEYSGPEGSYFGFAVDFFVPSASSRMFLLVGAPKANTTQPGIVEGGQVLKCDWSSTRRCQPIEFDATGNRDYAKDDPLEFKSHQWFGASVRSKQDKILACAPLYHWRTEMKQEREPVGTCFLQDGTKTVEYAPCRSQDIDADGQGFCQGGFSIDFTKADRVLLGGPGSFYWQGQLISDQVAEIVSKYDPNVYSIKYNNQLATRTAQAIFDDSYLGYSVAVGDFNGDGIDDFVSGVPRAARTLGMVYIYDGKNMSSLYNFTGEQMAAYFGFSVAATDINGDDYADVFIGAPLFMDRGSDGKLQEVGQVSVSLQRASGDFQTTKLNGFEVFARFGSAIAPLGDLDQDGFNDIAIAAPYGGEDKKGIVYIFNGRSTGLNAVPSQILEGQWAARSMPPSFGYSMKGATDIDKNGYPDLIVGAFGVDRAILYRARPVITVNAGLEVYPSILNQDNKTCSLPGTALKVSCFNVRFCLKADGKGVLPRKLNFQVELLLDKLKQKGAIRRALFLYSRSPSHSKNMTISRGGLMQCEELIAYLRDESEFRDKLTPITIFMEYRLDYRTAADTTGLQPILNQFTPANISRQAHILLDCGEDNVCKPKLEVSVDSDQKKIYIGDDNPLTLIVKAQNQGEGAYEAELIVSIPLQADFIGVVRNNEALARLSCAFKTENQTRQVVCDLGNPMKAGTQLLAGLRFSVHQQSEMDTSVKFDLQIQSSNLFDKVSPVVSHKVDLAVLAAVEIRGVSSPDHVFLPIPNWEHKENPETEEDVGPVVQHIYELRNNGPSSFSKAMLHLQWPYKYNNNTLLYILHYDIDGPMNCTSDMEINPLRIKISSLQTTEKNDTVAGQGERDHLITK
# Sequence (P06756 891-1048 partner limits assumed): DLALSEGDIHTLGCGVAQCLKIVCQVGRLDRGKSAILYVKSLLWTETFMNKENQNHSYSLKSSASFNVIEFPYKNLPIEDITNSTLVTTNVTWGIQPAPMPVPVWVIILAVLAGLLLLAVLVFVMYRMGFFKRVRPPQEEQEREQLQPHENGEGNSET
# Sequence (P18084 24-799): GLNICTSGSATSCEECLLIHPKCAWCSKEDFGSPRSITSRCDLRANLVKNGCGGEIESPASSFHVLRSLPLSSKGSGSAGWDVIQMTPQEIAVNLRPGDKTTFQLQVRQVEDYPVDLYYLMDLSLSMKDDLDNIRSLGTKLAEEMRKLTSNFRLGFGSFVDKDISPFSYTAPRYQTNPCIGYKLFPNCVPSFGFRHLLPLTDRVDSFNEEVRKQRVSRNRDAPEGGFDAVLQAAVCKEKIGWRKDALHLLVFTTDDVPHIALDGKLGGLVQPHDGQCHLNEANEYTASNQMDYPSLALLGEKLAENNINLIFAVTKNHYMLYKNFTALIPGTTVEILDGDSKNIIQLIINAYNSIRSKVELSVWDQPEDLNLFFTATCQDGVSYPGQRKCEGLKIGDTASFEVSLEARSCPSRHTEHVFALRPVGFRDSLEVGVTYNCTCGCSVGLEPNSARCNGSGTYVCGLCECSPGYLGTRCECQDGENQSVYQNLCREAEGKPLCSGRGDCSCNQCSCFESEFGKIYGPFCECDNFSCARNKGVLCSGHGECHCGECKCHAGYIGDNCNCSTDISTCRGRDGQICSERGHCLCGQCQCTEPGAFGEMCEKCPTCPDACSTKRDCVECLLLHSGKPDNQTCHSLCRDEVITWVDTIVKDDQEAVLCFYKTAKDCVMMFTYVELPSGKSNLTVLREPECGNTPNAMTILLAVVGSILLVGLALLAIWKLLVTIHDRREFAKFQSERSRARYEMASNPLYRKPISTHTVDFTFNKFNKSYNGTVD
# experiment description: In vitro solid phase purified αvβ5 binding assay (vitronectin/αVβ5)
# measurement context: inhibition of vitronectin binding to immobilized αVβ5; read-out: Antagonist IC50 Activity αVβ5
Kindly state pIC50 for each of the entries shown.
# pIC50: negative log10 of molar concentration; output just the value

Kindly state the measured pIC50 obtained for O=C(O)CC1c2ccccc2C2CN(C(=O)CCc3ccc4c(n3)NCCC4)CC12 (single isomer, unassigned) [Cpd 13] with human purified αVβ5 (Homo sapiens, UniProt P06756+P18084).
6.59

Kindly state the measured pIC50 obtained for O=C(O)CC1c2ccccc2C2CN(C(=O)CCc3ccc4c(n3)NCCC4)CC12 (racemic) [Cpd 12] with human purified αVβ5 (Homo sapiens, UniProt P06756+P18084).
7.82

Kindly state the measured pIC50 obtained for O=C(O)CC1c2ccccc2C2CN(C(=O)CCCc3ccc4c(n3)NCCC4)CCC12 (racemic) with human purified αVβ5 (Homo sapiens, UniProt P06756+P18084).
6.64

Kindly state the measured pIC50 obtained for O=C(O)CC1c2ccccc2C2CN(C(=O)CCCc3ccc4c(n3)NCCC4)CC12 (racemic) with human purified αVβ5 (Homo sapiens, UniProt P06756+P18084).
6.27

Kindly state the measured pIC50 obtained for O=C(O)C[C@H]1c2ccccc2[C@@H]2CN(C(=O)CCc3ccc4c(n3)NCCC4)C[C@H]12 with human purified αVβ5 (Homo sapiens, UniProt P06756+P18084).
8.24
